Hey, just so you know, these numbers are from PubChem BioAssay (NCI).

tested on: SK-OV-3 ovarian; assay: NCI tumour cell line growth inhibition, 48 h

{"Compound": "CC(C)OP(=O)(OC(C)C)C(C(C)C)N(C)/C(F)=N/C(F)(F)F (stereo unspecified)", "TGI": "> 100 µM"}
{"Compound": "O=C1CCC(O)=C1O", "TGI": "> 100 µM"}
{"Compound": "COc1cc2nc(-c3ccc(C(F)(F)F)cc3)cc(OCCCN3CCCCC3)c2cc1OC", "TGI": "23.3 µM"}
{"Compound": "CCN(CC)C1CC(n2cc(C)c(=O)[nH]c2=O)OC1CO (stereo unspecified)", "TGI": "> 100 µM"}
{"Compound": "COc1ccc2nc3cc(Cl)ccc3c(NCCNCCCNC(=O)c3cc(-c4ccccc4)nc4ccccc34)c2c1", "TGI": "> 100 µM"}
{"Compound": "COC1CC(OC(=O)c2ccccc2)C(OC(=O)c2ccccc2)C(C)O1 (stereo unspecified)", "TGI": "> 100 µM"}
